molecular target: N-acylethanolamine-hydrolyzing acid amidase (Rattus norvegicus); test: Inhibition of rat recombinant NAAA expressed in HEK293 cells after 30 mins
Flag rule - IC50 less than 3000 nM flags Criterion met; the remaining entries get Criterion not met.

## Task Consider C[C@@H]1OC(=O)[C@@H]1NC(=O)CCc1ccccc1 . Does its IC50 lie strictly below 3000 nM?
## Result Criterion not met

## Task And then O=C(Cc1ccccc1)N[C@H]1COC1=O , what is it?
## Result Criterion met

## Task And then O=C(CCc1ccccc1)N[C@@H]1COC1=O , what is it?
## Result Criterion not met

## Task And then O=C(N[C@H]1COC1=O)c1cccc2ccccc12 , what is it?
## Result Criterion not met

## Task And then O=C(N[C@H]1CCOC1=O)c1ccc2ccccc2c1 , what is it?
## Result Criterion not met

====

target: UniProtKB Q5KTC7; experiment: Inhibition of rat recombinant NAAA expressed in HEK293 cells after 30 mins
Measured metric: IC50

1. O=C1OCC1CCCCc1ccccc1 (racemic); 11000 nM
2. O=C(CCCCCCc1ccccc1)N[C@H]1COC1=O; 1500 nM
3. CCOC(=O)c1ccc2cc(C(=O)N[C@H]3COC3=O)ccc2c1; 300 nM
4. O=C(CCc1ccccc1)N[C@H]1CCOC1=O; > 100000 nM

## Task Entry O=C(N[C@H]1COC1=O)OCc1ccccc1 , system UniProtKB Q5KTC7: what IC50 was measured?
## Result 2960 nM

## Task And then CCc1ccc(C(=O)N[C@H]2COC2=O)cc1 , what is it?
## Result 102 nM

====

target: N-acylethanolamine-hydrolyzing acid amidase (Rattus norvegicus, UniProt Q5KTC7); assay: Inhibition of rat recombinant NAAA expressed in HEK293 cells after 30 mins; format: cell-based
Sequence (Q5KTC7 34-130 limits assumed): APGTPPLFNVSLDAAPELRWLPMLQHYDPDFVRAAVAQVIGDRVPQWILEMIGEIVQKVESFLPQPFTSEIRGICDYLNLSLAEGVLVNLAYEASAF
Sequence (Q5KTC7 131-362 limits assumed): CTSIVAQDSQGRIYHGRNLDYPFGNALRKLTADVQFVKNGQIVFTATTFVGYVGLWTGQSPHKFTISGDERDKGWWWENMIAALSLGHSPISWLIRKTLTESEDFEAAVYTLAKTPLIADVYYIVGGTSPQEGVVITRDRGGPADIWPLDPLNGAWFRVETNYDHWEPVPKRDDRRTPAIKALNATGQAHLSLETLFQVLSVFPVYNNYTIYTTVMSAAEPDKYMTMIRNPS
Entries and their IC50

Use these answered entries as a reference point.
1) COc1ccc2cc(C(=O)N[C@H]3COC3=O)ccc2c1; 400 nM
2) O=C(CCc1ccccc1)NC1CCC1; > 100000 nM
3) CCCCCCC(=O)N[C@H]1COC1=O; 460 nM
4) O=C(CCc1ccccc1)N[C@@H](CO)C(=O)O; > 100000 nM
5) O=C(N[C@H]1COC1=O)c1cccc(-c2ccccc2)c1; 4400 nM

## Task For O=C(N[C@H]1COC1=O)c1ccc(C(=O)Oc2ccccc2)cc1 , what is its reported IC50?
## Result 300 nM

## Task And then O=C(N[C@H]1COC1=O)c1ccc(OCc2ccccc2)cc1 , what is it?
## Result 90 nM

## Task And then O=C(N[C@H]1COC1=O)c1ccccc1 , what is it?
## Result 1700 nM

## Task And then O=C(N[C@H]1COC1=O)c1ccc2ccccc2c1 , what is it?
## Result 160 nM

## Task And then C[C@H]1OC(=O)[C@H]1NC(=O)CCc1ccccc1 , what is it?
## Result > 100000 nM

## Task And then O=C(N[C@@H]1COC1=O)c1ccc2ccccc2c1 , what is it?
## Result 3200 nM
